Target: Ubiquitin carboxyl-terminal hydrolase 1 (Homo sapiens) (UniProt O94782)
Sequence (O94782 whole entry, looked up): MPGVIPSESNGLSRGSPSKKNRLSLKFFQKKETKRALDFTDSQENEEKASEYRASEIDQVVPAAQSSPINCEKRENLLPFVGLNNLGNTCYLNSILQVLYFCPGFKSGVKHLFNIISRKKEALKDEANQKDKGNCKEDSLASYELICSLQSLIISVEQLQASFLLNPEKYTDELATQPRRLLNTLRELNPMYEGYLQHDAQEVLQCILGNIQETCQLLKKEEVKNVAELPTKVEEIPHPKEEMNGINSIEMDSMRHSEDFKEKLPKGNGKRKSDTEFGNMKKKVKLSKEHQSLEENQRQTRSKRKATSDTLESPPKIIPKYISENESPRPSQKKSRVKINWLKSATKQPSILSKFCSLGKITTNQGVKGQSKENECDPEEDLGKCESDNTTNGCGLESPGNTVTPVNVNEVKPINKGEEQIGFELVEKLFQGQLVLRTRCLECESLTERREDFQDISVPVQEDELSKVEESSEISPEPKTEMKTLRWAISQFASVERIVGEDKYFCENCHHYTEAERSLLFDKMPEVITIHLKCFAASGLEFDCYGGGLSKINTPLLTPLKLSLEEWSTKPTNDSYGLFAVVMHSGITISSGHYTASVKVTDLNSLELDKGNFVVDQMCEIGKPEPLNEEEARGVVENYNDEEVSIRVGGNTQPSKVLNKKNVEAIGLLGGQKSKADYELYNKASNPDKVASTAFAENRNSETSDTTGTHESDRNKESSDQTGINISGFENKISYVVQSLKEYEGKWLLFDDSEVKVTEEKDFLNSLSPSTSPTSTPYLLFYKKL
Assay: Inhibitors of USP1/UAF1: Primary Screen; further: nearly all actives have a fitted effect of over 60% in size
Conditions: recombinant USP1/UAF1, Ub-Rhodamine cleavage fluorescence; series mostly up to 57.1 µM
Screen size: about 390,000 compounds; about 910 (0.23%) were called active. About 5% were inconclusive and are not listed. The call rests on the fitted dose curve; in most records, active means well fitted inhibition curve with a large enough effect; inconclusive means small, poorly fitted or top-dose-only effect; inactive means no such curve, though single readings can be large or run the other way. The sample holds actives, similar compounds and a random draw of the others, so the mix is not that of the screen.
Outcomes you can answer with include only these: active, inactive

Sample answers from the record:
CCOc1ccc(CCNC(=O)Cn2nc(CC)n3c(cc4sc(CC)cc43)c2=O)cc1OCC ... inactive
COc1ccc(CNC(=O)CS(=O)Cc2nc(-c3cccc(C)c3)oc2C)cc1 (configuration not stated) ... inactive
CCC(C)N1C(=O)S/C(=C/c2ccc(Sc3nc4ccccc4[nH]3)o2)C1=O (configuration not stated) ... inactive
CCOC(=O)c1c(NC(C)=O)c2c3c(sc2n1Cc1c(C)cc(C)cc1C)CCCC3 ... inactive

[ask] GET /call?item= CC1(OC(=O)C2CCCC2)C(=O)C=C2C=C(c3ccc(C#N)cc3)OC=C2C1=O (configuration not stated) returns the recorded outcome of this test.
[reply] active

[ask] Fill in: this test's call for "NC(=O)c1ccc(N2CCOCC2)nc1" is ___
[reply] inactive

[ask] Record request — test call for O=C(CCC(=O)N1CC2CCCN2c2ccccc21)NCc1ccccc1Cl (configuration not stated)
[reply] inactive

[ask] // outcome(item) with item = CCCN(CCC)C(=O)C1CCCN(c2ncnc3c2nc2n3CCCCC2)C1 (configuration not stated)
[reply] inactive

[ask] Please let me know the test result on file for "CCn1c(=O)c2cc(C(=O)NCCc3ccc(Cl)cc3)sc2c2ccccc21" .
[reply] inactive

[ask] Called result for O=C(NCC(c1cccnc1)N1CCc2ccccc21)c1cccc(C(F)(F)F)c1 (configuration not stated)
[reply] inactive

[ask] Hey, what did the test say about "COc1ccccc1NC(=O)c1cc(S(=O)(=O)NCCc2ccccc2)ccc1F" ?
[reply] inactive

[ask] # outcome recorded in this test, key = "COc1ccc(-n2c(SC)nc3sc4c(c3c2=O)CCN(C(C)=O)C4)cc1"
[reply] inactive

[ask] How did this test come out for "CCOC(=O)c1c(C)n(S(=O)(=O)c2ccc(C)cc2C)c2ccc(NS(=O)(=O)c3ccc(C)cc3C)cc12" ?
[reply] inactive

[ask] I would be grateful if you could indicate the recorded call for "Cc1cc(C)c(/C=C2\C(=O)Nc3ccccc32)[nH]1" .
[reply] active

[ask] I would be grateful if you could indicate the recorded call for O=S(=O)(NCC(c1ccccc1)N1CCc2ccccc21)c1ccccc1 (configuration not stated) .
[reply] inactive

[ask] Test call, this compound: "COCCN(CCOC)S(=O)(=O)c1ccc(C(=O)Nc2nc3c(s2)CCc2ccccc2-3)cc1"
[reply] inactive

[ask] How did this test come out for "O=C(CSCc1cnn(-c2ccccc2)c1-n1cccc1)NCc1ccccc1Br" ?
[reply] inactive

[ask] Which outcome was entered for the compound "CCc1ccccc1OCCSc1nc(-c2cccs2)nc2cc(=O)[nH]n12" in this test?
[reply] inactive

---

Molecular target: Ubiquitin carboxyl-terminal hydrolase 1 (Homo sapiens)
Test: Inhibitors of USP1/UAF1: Primary Screen; further: nearly all actives have a fitted effect of over 60% in size; further: potency means the concentration at half of the fitted maximal effect
Details: recombinant USP1/UAF1, Ub-Rhodamine cleavage fluorescence; series mostly up to 57.1 µM
The whole screen tested about 390,000 compounds, of which about 910 (0.23%) were called active. Another 5% or so got no clear call; they are omitted. What follows is part of a selection rich in actives, with near analogues and random picks from the rest.
observable: Potency

The examples below pair each entry with its known result.
CCOC(=O)CC1C(=O)NCCN1c1nc2c(C)cccn2c(=O)c1/C=C1\SC(=S)N(C(C)CC)C1=O (stereo unspecified) ... 8.91 µM (active)
CCOC(=O)c1ccc(NC2=CC(c3ccc(OCC)cc3)N(c3ccc(C(=O)OCC)cc3)C2=O)cc1 (stereo unspecified) ... inactive
CCOC(=O)c1ccc(Nc2cc3ccccc3c(=O)[nH]2)cc1 ... 17.8 µM (active)
O=S(=O)(NCC(c1ccco1)N1CCOCC1)c1cc(F)ccc1F (stereo unspecified) ... inactive

List Potency for every entry below, keeping the order given.
1. CC1=CC2=NC(=O)/C(=C/c3coc4ccccc4c3=O)C(=N)N2O1
2. CCCCCCc1cc2cc(-c3nnc(-c4ccccc4)o3)c(=O)oc2cc1O
3. CC(=O)Nc1cc(C(=O)NCc2ccc(F)cc2Cl)ccc1Sc1ccc(Cl)cc1
4. CCOc1ccc(CCNC(=O)c2cc3c(=O)n(C)c4ccccc4c3n2C)cc1
5. COc1ccc(CCNC(=O)c2cc(=O)c3c(C)cc(C)cc3o2)cc1OC
6. CCCN1C(=O)C(O)(CC(=O)c2ccc(CC)cc2)c2cc(Br)ccc21 (stereo unspecified)
7. Cc1ccc(-c2nnc(Nc3ccc(OCC(N)=O)cc3)c3ccccc23)cc1S(=O)(=O)NCC1CCCO1 (stereo unspecified)

[reply]
["28.2 µM (active)", "8.91 µM (active)", "inactive", "inactive", "inactive", "inactive", "inactive"]

---

Target: Ubiquitin carboxyl-terminal hydrolase 1 (Homo sapiens)
Experiment: Inhibitors of USP1/UAF1: Primary Screen; further: nearly all actives have a fitted effect of over 60% in size
Details: recombinant USP1/UAF1, Ub-Rhodamine cleavage fluorescence; series mostly up to 57.1 µM
Description: Deubiquitinating enzymes (DUBs) are a class of enzymes that can cleave isopeptide bond formed between the C-terminal carboxylate of ubiquitin and a lysine side-chain amino group on the target protein. Among them, ubiquitin specific proteases (USPs) constitute the largest DUB family. […] This miniaturized assay has a fluorescent read-out and is used to screen the NIH Molecular Libraries Small Molecule Repository (MLSMR) in order to identify a small molecule that inhibits USP1. […]
About 910 (0.23%) of roughly 390,000 compounds were called active. Inconclusive results (about 5%) are left out. Calls come from the whole dose curve; as a rule, active = well fitted inhibition curve with a large enough effect; inconclusive = small, poorly fitted or top-dose-only effect; inactive = no such curve, though single readings can be large or run the other way. This excerpt belongs to a sample that is enriched for actives.
Permitted responses: yes = active, no = inactive

O=C(NCC(c1ccco1)S(=O)(=O)c1cccs1)c1ccc(F)cc1 (centres undefined) ... no
Cn1c(COc2ccccc2C(C)(C)C)nc2ccccc21 ... no
CCOc1ccc(CCNC(=O)c2ccc3c(c2)sc2nc(-c4ccc(F)cc4)cn23)cc1OCC ... no
CCc1ccc(CNC(=O)c2cc3c(=O)n(CC)c4ccccc4c3s2)cc1 ... no

[ask] What was the test verdict on "COc1ccc(Cc2nc3ccc(C(=O)NCc4ccc(OC)cc4OC)cc3o2)cc1" ?
[reply] no

[ask] Could you kindly confirm the outcome this assay logged for "CCc1ccccc1NC(=O)c1ccc(F)c(S(=O)(=O)NC2CCCCCC2)c1" ?
[reply] no

[ask] Query: recorded result category for CCOC(=O)C1CCCN(C(=O)c2ccc3c(c2)sc2nc(-c4ccc(CC)cc4)cn23)C1 (centres undefined) in this test
[reply] no

[ask] What did the test return for CCCCOc1ccc(C(=O)N2CC(=O)Nc3ccc(Br)cc3C2c2ccc(F)cc2)cc1 (centres undefined) ?
[reply] no

[ask] Dear colleague, could you share the recorded outcome for Cc1ccc(C2CCN(C(=O)c3cnn(-c4ccccc4Cl)c3C3CCN(C(=O)OC(C)(C)C)CC3)C2)cc1 (centres undefined) when you have a moment?
[reply] no

[ask] What call does the record list for "Oc1c(C=Nc2cccc3nsnc23)ccc2ccccc12" ?
[reply] yes

[ask] Which outcome did this test record for the compound "COc1cccc(CNC(=O)C2CCN(S(=O)(=O)c3ccc4c(ccn4C)c3)CC2)c1" ?
[reply] no

---

Molecular target: Ubiquitin carboxyl-terminal hydrolase 1 (Homo sapiens) (UniProt O94782)
Assay: Inhibitors of USP1/UAF1: Primary Screen; further: nearly all actives have a fitted effect of over 60% in size
Conditions: recombinant USP1/UAF1, Ub-Rhodamine cleavage fluorescence; series mostly up to 57.1 µM
Screen size: about 390,000 compounds; about 910 (0.23%) were called active. Not shown: some 5% with an inconclusive outcome. Calls follow the shape of the dose curve; as a rule, active = well fitted inhibition curve with a large enough effect; inconclusive = small, poorly fitted or top-dose-only effect; inactive = no such curve, though single readings can be large or run the other way. Many of the other results were omitted from the sample, so actives are more common in it than they were.
// allowed return values: active, inactive

CC(=O)Nc1cccc(NC(=O)CSc2cn(CC(=O)N3CCCC3)c3ccccc23)c1 ... inactive

[ask] Test call for this compound, please: CC(=O)N1c2ccc(S(=O)(=O)N3CCCCCC3)cc2CC1C(=O)NCc1ccccc1C (stereo not given)
[reply] inactive

[ask] GET /call?item= "CCN(c1ncnc2c1cnn2-c1ccc(C)cc1)C1CCCCC1" returns the recorded outcome of this test.
[reply] inactive

[ask] State the result this test recorded for "Cc1ccc(-c2nc3cccc(C)n3c2Nc2ccc3c(c2)OCCO3)cc1" .
[reply] inactive

[ask] Write down the call the test reported for this compound. Item: "O=C(CCl)N(Cc1cccc([N+](=O)[O-])c1)c1cccc(Cl)c1"
[reply] inactive

[ask] Hey, what did the test say about O=C(CC1N=C2c3ccccc3N=C(SCc3cccc(Cl)c3)N2C1=O)NCc1ccc2c(c1)OCO2 (stereo not given) ?
[reply] inactive

[ask] // param item: "CCCC(=O)Nc1cc(C(=O)NCc2ccc(OC)cc2)ccc1S(=O)(=O)c1ccc(Cl)cc1" ; yields the recorded call
[reply] inactive

[ask] Could you please tell me the result logged for "CC(C)(C)OC(=O)N1CCC(c2c(C(=O)NCCc3ccsc3)cnn2-c2ccc(F)cc2F)CC1" in this assay?
[reply] inactive

[ask] Dear colleague, could you share the recorded outcome for COc1c(Cl)cc(C(=O)N(Cc2ccccc2F)C2CCS(=O)(=O)C2)cc1Cl (stereo not given) when you have a moment?
[reply] inactive

[ask] # outcome recorded in this test, key = "COc1cc(/C=C2/C(=O)NN(c3cccc(Cl)c3)C2=O)cc(Br)c1O"
[reply] active
